TEST_SYSTEM: T1, Heat-denatured BSA (bovine serum albumin autoclaved for 15 minutes) (bovine, UniProt P02769 25-607)
T1 construct: also called heat-denatured BSA solution; reagent for detection
T1 sequence (P02769 25-607 limits assumed): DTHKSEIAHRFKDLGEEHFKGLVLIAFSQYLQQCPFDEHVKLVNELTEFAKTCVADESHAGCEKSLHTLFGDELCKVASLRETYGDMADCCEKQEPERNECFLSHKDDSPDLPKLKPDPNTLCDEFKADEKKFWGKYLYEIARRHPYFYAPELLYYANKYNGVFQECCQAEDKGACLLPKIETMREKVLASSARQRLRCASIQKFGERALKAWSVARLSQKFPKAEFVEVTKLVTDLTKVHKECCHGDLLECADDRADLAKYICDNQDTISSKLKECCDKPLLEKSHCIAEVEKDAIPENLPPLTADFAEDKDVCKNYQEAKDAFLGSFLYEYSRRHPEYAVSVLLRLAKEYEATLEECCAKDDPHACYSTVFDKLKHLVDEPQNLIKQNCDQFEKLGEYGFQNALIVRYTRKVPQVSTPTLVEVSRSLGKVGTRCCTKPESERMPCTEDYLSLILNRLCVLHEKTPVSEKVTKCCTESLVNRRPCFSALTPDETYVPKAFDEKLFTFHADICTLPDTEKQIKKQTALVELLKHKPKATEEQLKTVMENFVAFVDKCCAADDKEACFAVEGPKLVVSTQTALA
ASSAY_NAME: turbidity (OD550), Hill plot analysis; heat denaturation period 15 min
QUANTITY: Kd (µM)
Give the number; µM is assumed, so skip it.

// query Given the entry SYSMEHFRWGKPVGKKRRPVKVYP (also called basic peptide of interest) [partial ACTH peptide consisting of the amino acids of positions 1 to 24 of ACTH] , report its measured Kd.
// result 30
